test system: RXF 393 renal; assay: NCI tumour cell line growth inhibition, 48 h
Assign TGI to each entry below.
# number only, unit µM dropped from output

Query :: Find the measured TGI: item COc1ccc(CCN2C(=O)/C(=C/c3csc(C#N)n3)SC2=S)cc1OC , target or system RXF 393 renal.
Result :: 12.6

Query :: Find the measured TGI: item Nc1ccc(-c2ccc3ncnc(N4CCc5cc(F)c(Cl)cc54)c3c2)cn1 , target or system RXF 393 renal.
Result :: 5.22

Query :: Find the measured TGI: item CC(=O)Oc1ccccc1C(=O)Oc1ccc(C(=O)/C=C/c2ccncc2)cc1 , target or system RXF 393 renal.
Result :: 20.8

----------
tested on: MDA-MB-468 breast; assay: NCI tumour cell line growth inhibition, 48 h; in the data active = GI50 below about 0.43 µM; inactive = the rest
Just give me one of these, please: active, inactive

Query :: Answer briefly: the call reported for Nc1ccc(-c2ccc3ncnc(N4CCc5cc(F)c(Cl)cc54)c3c2)cn1 in this assay.
Result :: inactive

Query :: Answer briefly: the call reported for CC(=O)N[C@H](C(=O)N[C@@H](CCCNC(=N)N)C(=O)N[C@@H](CCCCN)C(=O)N[C@@H](CCCNC(=N)N)C(=O)N[C@]1(C)CCCCCC/C=C\CCC[C@@](C)(C(=O)N[C@@H](CCCNC(=N)N)C(=O)N[C@@H](CCC(=O)O)C(=O)N[C@@H](CC(C)C)C(=O)N[C@H](C(=O)N[C@@H](CCC(=O)O)C(N)=O)C(C)C)NC(=O)[C@H](CCC(N)=O)NC(=O)[C@H](CC(C)C)NC(=O)[C@H](CC(C)C)NC(=O)[C@H](CCCNC(=N)N)NC(=O)[C@H](CCCNC(=N)N)NC(=O)[C@H](CC(C)C)NC1=O)C(C)C in this assay.
Result :: inactive

Query :: Answer briefly: the call reported for CCCCCCCCCCN=C(c1ccc(N(C)C)cc1)c1ccc(N(C)C)cc1 in this assay.
Result :: active

----------
test system: IGROV1 ovarian; test: NCI tumour cell line growth inhibition, 48 h
*1 amine or outer side, *2 acyl side, *3 side chain or, on linkers, in order; H or OH if unused. Where a SMILES comes first, the peptide text is derived from it. Bridges are numbered along the chain shown (N, C = ends). Roman numbers before positions name the chains, in order. [ ]: non-standard residue; d: D form. ξ: configuration not given here. Actinocin(1to9) = Cc1c2oc3c(C)ccc(C(=O)[*:2])c3nc-2c(C(=O)[*:1])c(N)c1=O; Pro(4-oxo) = O=C1CN[C@H](C(=O)O)C1; Thr(3ξ) = CC(O)[C@H](N)C(=O)O; NMeV = CN[C@H](C(=O)O)C(C)C; Sar = CNCC(=O)O
Assign GI50 to each entry below.

Query :: For the molecule shown here, COc1ccc(CCN2C(=O)/C(=C/c3csc(C#N)n3)SC2=S)cc1OC , give the reported GI50.
Result :: 18.2 µM

Query :: For the molecule shown here, O=C(c1ccccc1)c1ccc2nc(-c3ccccc3Br)[nH]c2c1 , give the reported GI50.
Result :: 3.51 µM

Query :: For the molecule shown here, Nc1ccc(-c2ccc3ncnc(N4CCc5cc(F)c(Cl)cc54)c3c2)cn1 , give the reported GI50.
Result :: 0.639 µM

Query :: For the molecule shown here, Cc1c2oc3c(C)ccc(C(=O)N[C@@H]4C(=O)N[C@H](C(C)C)C(=O)N5CCC[C@H]5C(=O)N(C)CC(=O)N(C)[C@@H](C(C)C)C(=O)OC4C)c3nc-2c(C(=O)N[C@@H]2C(=O)N[C@H](C(C)C)C(=O)N3CC(=O)C[C@H]3C(=O)N(C)CC(=O)N(C)[C@@H](C(C)C)C(=O)OC2C)c(N)c1=O (some centres undefined) (I: [Thr(3ξ)][dV][Pro(4-oxo)][Sar][NMeV] / II: [Thr(3ξ)][dV]P[Sar][NMeV]; ester I:1-I:C, II:1-II:C; linker I:N-II:N via Actinocin(1to9)) , give the reported GI50.
Result :: < 0.01 µM

----------
Assign TGI to each entry below.
tested on: MDA-MB-468 breast; assay: NCI tumour cell line growth inhibition, 48 h
# number only, unit µM dropped from output

Query :: Find the measured TGI: item O=C1C(Cl)=C(Nc2ccccc2)C(=O)c2ccccc21 , target or system MDA-MB-468 breast.
Result :: 3.1

Query :: Find the measured TGI: item Cn1c([N+](=O)[O-])cnc1/C=C1\Oc2cc(Cl)ccc2C1=O , target or system MDA-MB-468 breast.
Result :: 15.2

Query :: Find the measured TGI: item COc1ccc(-c2nnc(N3CCN(C(=O)CN4CCN(c5ccc(OC)cc5)CC4)CC3)nc2-c2ccc(OC)cc2)cc1 , target or system MDA-MB-468 breast.
Result :: 21.7

Query :: Find the measured TGI: item CNC(=O)c1cc2c(Oc3ccc(NC(=O)C4(C(=O)Nc5ccc(F)cc5)CC4)cc3)ccnc2cc1OC , target or system MDA-MB-468 breast.
Result :: 13.5

Query :: Find the measured TGI: item O=S(=O)(CCOCc1ccc(-c2ccc3ncnc(Nc4ccc(OCc5cccc(F)c5)c(Cl)c4)c3c2)o1)c1ccccc1 , target or system MDA-MB-468 breast.
Result :: 2.33

Query :: Find the measured TGI: item COc1ccc2cc(-c3ccc(-c4ccc(C(=N)N)s4)s3)ccc2c1 , target or system MDA-MB-468 breast.
Result :: 4.44

Query :: Find the measured TGI: item Cn1cc(-c2csc(-c3cn(C)c4ccccc34)n2)c2cnccc21 , target or system MDA-MB-468 breast.
Result :: 0.866

----------
test system: RXF 393 renal; assay: NCI tumour cell line growth inhibition, 48 h
*1 amine or outer side, *2 acyl side, *3 side chain or, on linkers, in order; H or OH if unused. Where a SMILES comes first, the peptide text is derived from it. Bridges are numbered along the chain shown (N, C = ends). Roman numbers before positions name the chains, in order. [ ]: non-standard residue; d: D form. ξ: configuration not given here. Actinocin(1to9) = Cc1c2oc3c(C)ccc(C(=O)[*:2])c3nc-2c(C(=O)[*:1])c(N)c1=O; Pro(4-oxo) = O=C1CN[C@H](C(=O)O)C1; Thr(3ξ) = CC(O)[C@H](N)C(=O)O; NMeV = CN[C@H](C(=O)O)C(C)C; Sar = CNCC(=O)O
Quantity Kind: TGI

Query :: For the compound shown here, Cc1c2oc3c(C)ccc(C(=O)N[C@@H]4C(=O)N[C@H](C(C)C)C(=O)N5CCC[C@H]5C(=O)N(C)CC(=O)N(C)[C@@H](C(C)C)C(=O)OC4C)c3nc-2c(C(=O)N[C@@H]2C(=O)N[C@H](C(C)C)C(=O)N3CC(=O)C[C@H]3C(=O)N(C)CC(=O)N(C)[C@@H](C(C)C)C(=O)OC2C)c(N)c1=O (stereo partly specified) (I: [Thr(3ξ)][dV][Pro(4-oxo)][Sar][NMeV] / II: [Thr(3ξ)][dV]P[Sar][NMeV]; ester I:1-I:C, II:1-II:C; linker I:N-II:N via Actinocin(1to9)) , give the reported TGI.
Result :: < 10 nM

----------
Assign TGI to each entry below.
tested on: TK-10 renal; test: NCI tumour cell line growth inhibition, 48 h
*1 amine or outer side, *2 acyl side, *3 side chain or, on linkers, in order; H or OH if unused. Where a SMILES comes first, the peptide text is derived from it. Bridges are numbered along the chain shown (N, C = ends). Roman numbers before positions name the chains, in order. [ ]: non-standard residue; d: D form. ξ: configuration not given here. Actinocin(1to9) = Cc1c2oc3c(C)ccc(C(=O)[*:2])c3nc-2c(C(=O)[*:1])c(N)c1=O; Pro(4-oxo) = O=C1CN[C@H](C(=O)O)C1; Thr(3ξ) = CC(O)[C@H](N)C(=O)O; NMeV = CN[C@H](C(=O)O)C(C)C; Sar = CNCC(=O)O
# number only, unit µM dropped from output

Query :: For the compound shown here, Cc1c2oc3c(C)ccc(C(=O)N[C@@H]4C(=O)N[C@H](C(C)C)C(=O)N5CCC[C@H]5C(=O)N(C)CC(=O)N(C)[C@@H](C(C)C)C(=O)OC4C)c3nc-2c(C(=O)N[C@@H]2C(=O)N[C@H](C(C)C)C(=O)N3CC(=O)C[C@H]3C(=O)N(C)CC(=O)N(C)[C@@H](C(C)C)C(=O)OC2C)c(N)c1=O (some centres undefined) (I: [Thr(3ξ)][dV][Pro(4-oxo)][Sar][NMeV] / II: [Thr(3ξ)][dV]P[Sar][NMeV]; ester I:1-I:C, II:1-II:C; linker I:N-II:N via Actinocin(1to9)) , give the reported TGI.
Result :: 6.4

Query :: For the compound shown here, O=C(c1ccccc1)c1ccc2nc(-c3ccccc3Br)[nH]c2c1 , give the reported TGI.
Result :: 21.3

Query :: For the compound shown here, Nc1ccc(-c2ccc3ncnc(N4CCc5cc(F)c(Cl)cc54)c3c2)cn1 , give the reported TGI.
Result :: 9.78

Query :: For the compound shown here, COc1ccc(CCN2C(=O)/C(=C/c3csc(C#N)n3)SC2=S)cc1OC , give the reported TGI.
Result :: 10.3
